System: M14
Test: Cytotoxicity against human M14 cells assessed as cellular growth at 10 uM
Assay type: functional
Measured Activity of individual entries
Form entry: value (%) — number only.

For the molecule `Cc1ccc(C(=O)Nc2ccc3c(c2NC(=O)c2ccc(C)cc2)C(=O)c2ccccc2C3=O)cc1` , what Activity is on record?
91.57

###

Measured residual activity of individual entries
Molecular target: Telomerase reverse transcriptase (Homo sapiens) (UniProt O14746)
Sequence (O14746 whole entry): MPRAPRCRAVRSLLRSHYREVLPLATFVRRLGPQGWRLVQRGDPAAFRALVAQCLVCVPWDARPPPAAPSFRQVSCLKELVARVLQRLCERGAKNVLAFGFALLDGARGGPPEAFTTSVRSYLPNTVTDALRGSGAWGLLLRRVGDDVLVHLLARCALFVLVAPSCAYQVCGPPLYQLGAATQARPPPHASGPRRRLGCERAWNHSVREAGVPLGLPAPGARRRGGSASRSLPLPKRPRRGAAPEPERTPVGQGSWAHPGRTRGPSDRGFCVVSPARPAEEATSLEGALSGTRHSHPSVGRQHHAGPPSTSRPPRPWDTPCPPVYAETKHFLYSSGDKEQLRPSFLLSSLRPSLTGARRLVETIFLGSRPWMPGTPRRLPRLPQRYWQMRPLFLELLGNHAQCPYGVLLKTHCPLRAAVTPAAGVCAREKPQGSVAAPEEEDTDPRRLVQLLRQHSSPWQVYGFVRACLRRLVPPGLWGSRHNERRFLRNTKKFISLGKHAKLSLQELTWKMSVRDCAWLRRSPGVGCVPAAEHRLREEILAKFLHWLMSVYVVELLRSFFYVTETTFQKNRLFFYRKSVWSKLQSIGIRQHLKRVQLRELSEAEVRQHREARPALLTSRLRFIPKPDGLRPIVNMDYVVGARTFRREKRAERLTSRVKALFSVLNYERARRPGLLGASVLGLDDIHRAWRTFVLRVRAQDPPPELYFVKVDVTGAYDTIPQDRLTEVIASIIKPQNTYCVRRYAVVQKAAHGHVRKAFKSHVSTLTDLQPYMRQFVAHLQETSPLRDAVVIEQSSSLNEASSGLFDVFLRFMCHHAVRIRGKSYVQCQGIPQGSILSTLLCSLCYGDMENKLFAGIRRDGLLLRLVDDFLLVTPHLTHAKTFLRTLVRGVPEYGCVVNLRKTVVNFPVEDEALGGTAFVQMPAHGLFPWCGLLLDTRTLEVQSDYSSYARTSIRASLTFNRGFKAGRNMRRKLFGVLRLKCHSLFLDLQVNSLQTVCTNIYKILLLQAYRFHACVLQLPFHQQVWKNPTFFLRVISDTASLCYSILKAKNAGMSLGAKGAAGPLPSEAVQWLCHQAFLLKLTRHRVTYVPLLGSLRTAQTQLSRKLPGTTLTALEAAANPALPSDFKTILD
Assay: Residual activity of human TERT in H1299 cells at 1 uM after 24 hrs by SEAP reporter gene assay
Form entry: value (%) — number only.

// known answers, use as guide
{"columns": ["compound", "units", "residual activity"],
 "data": [
  ["Cc1ccc(C(=O)Nc2c(NC(=O)CN3CCOCC3)ccc3c2C(=O)c2ccccc2C3=O)cc1", "%", 98],
  ["Cc1ccc(C(=O)Nc2c(NC(=O)CN3CCCCC3)ccc3c2C(=O)c2ccccc2C3=O)cc1", "%", 85],
  ["O=C(CCl)Nc1ccc2c(c1NC(=O)Cc1ccccc1)C(=O)c1ccccc1C2=O", "%", 84],
  ["O=C(CCl)Nc1ccc2c(c1NC(=O)CSc1ccccc1)C(=O)c1ccccc1C2=O", "%", 80]
]}

Proceeding to the next compound to report its residual activity.
For the compound `Cc1ccc(C(=O)Nc2c(NC(=O)CN(C)CC3OCCO3)ccc3c2C(=O)c2ccccc2C3=O)cc1` , what residual activity is on record?
100
